biological target: T1, human SIRPα v1 on CHOK1 cells (human, UniProt P78324 31-504); test: FACS, CHOK1 cells stably expressing human SIRPα v1
T1 construct: whole, on cells; also called CHOK1-hSIRPα v1; cell surface human SIRPα v1
T1 sequence (P78324 31-504): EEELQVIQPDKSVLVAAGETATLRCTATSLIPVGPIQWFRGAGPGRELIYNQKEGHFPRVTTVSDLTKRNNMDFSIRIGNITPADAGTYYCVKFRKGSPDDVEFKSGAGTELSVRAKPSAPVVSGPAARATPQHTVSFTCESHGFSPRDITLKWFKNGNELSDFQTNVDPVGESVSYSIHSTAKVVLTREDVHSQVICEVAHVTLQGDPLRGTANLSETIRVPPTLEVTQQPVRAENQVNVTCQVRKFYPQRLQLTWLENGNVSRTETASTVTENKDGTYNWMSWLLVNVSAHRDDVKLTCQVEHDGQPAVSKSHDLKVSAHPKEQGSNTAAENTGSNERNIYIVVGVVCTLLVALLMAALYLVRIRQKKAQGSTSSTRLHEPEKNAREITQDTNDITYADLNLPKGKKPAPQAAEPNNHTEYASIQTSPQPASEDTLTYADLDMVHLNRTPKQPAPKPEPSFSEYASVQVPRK
pEC50: −log10 of the molar value.
OBSERVABLE: pEC50

[[record]]
binder = "Anti-SIRPα antibody C15 (antibody, V domains shown, Mouse variable regions; tested as purified chimeric antibody; also called 015c) VH: EVQLQQSGVEVVQPGASVKLSCTASGFNIEAYYMHWVKQRTEQGLEWIGRIDPEDGESKYAPKFQGKATMTADTSSSTAYLQLSSLTSDDTAVYYCVRGSYEYWGQGTTLTVSS VL: QIVLTQSPAIMSASPGEKVTLTCSASSSVSSSYLYWYQQKPGSSPKLWIYSTSNLASGVPPRFSGSGSGTSYSLTISSMQAEDAASYFCYQWSSYPYTFGGGTKLEIK"
value_reported = 8.83

[[record]]
binder = "Anti-SIRPα antibody C42 (antibody, human IgG4, V domains shown, Mouse variable regions; also called 042c) VH: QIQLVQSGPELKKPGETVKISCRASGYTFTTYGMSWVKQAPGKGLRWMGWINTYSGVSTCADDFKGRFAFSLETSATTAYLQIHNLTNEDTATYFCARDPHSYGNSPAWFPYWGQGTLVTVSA VL: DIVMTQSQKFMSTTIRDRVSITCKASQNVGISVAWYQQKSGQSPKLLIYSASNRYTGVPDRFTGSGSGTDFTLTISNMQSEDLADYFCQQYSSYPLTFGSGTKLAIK"
value_reported = 8.72


Origin of the recorded values: patent US20240336686A1
